Numbers sourced from the METLIN SMRT retention time set (Domingo-Almenara et al. 2019).

method.description: gradient 5% acetonitrile 3 min, to 50% in 2 min, to 85% in 15 min, held 3 min, 100 µL/min
conditions.used: column: Zorbax Extend-C18 2.1 x 50 mm; eluents: water / acetonitrile, 0.1% formic acid
observed.property: RP-LC retention time (s)

Cc1cccc(-n2c(N3CCCC(C(=O)NCc4ccc(C)c(C)c4)C3)nc3ccsc3c2=O)c1 (stereo not drawn)	1020
Cc1ccc(C)c(N2CCN(C(=O)c3cn4cc(C)ccc4n3)CC2)c1	797
CCNCc1cc(C(C)(C)C)c(O)c(C(C)(C)C)c1	753

P: O=C(NC1CCCCCCC1)C1CC(=O)N(CCc2c[nH]c3ccc(Cl)cc23)C1 (stereo not drawn)
Q: Cc1nc2cc(-c3noc(-c4cccc(Cl)c4)n3)ccc2o1
Please state the entry with greater RP-LC retention time among P and Q . Returns: label corresponding to the selected item.
Q
(Q: 1210 s, P: 732 s)

I: CC(C)n1c(=O)oc2cc(-c3noc(/C=C/c4ccccc4)n3)ccc21
II: CCC(=O)N1CCc2cc(C(=O)NCc3ccc4c(c3)OCO4)ccc21
Would you kindly point out which of I and II has the smaller RP-LC retention time figure? Returns: label corresponding to the selected item.
II

P: CCOC(=O)c1noc2ncnc(N3CCN(Cc4ccccc4)CC3)c12
Q: Cc1ccc(-c2nnc(-c3ccccc3)o2)cc1S(=O)(=O)N(C)C
Would you kindly point out which of P and Q has the smaller RP-LC retention time figure? Returns: label corresponding to the selected item.
P
